target desc: S. aureus 133 Translation
assay notes: S. aureus in vitro transcription-translation assay (firefly luciferase, S30 extract)
condition label: 50% inhibition of the translation of firefly luciferase
Below, each entry is listed with its recorded pIC50.
Just the number, please; pIC50 means minus log10 of the concentration in mol/L.

Worked examples, 3 compounds total:
NCCC[C@@H]1NC(=O)[C@@H](N)Cc2cc(ccc2O)-c2ccc(O)c(c2)C[C@@H](C(=O)N(CCN)CC2CCCCN2)NC1=O (stereo partly drawn) :: 6.48
NCCC[C@@H]1NC(=O)[C@@H](N)Cc2cc(ccc2O)-c2ccc(O)c(c2)C[C@@H](C(=O)N2CCC[C@H]2C(=O)N[C@@H](CCCN)C(=O)NCCN)NC1=O :: 6.15
CNCCN(CCN)C(=O)[C@@H]1Cc2cc(ccc2O)-c2ccc(O)c(c2)C[C@H](N)C(=O)N[C@@H](CCCN)C(=O)N1 :: 6.10

pIC50 for `NCCC[C@@H]1NC(=O)[C@@H](N)Cc2cc(ccc2O)-c2ccc(O)c(c2)C[C@@H](C(=O)N(CCN)CCO)NC1=O` ?
6.15

Record request: pIC50 value, item NCCC[C@@H]1NC(=O)[C@@H](N)Cc2cc(ccc2O)-c2ccc(O)c(c2)C[C@@H](C(=O)N(CCN)CC(O)CN)NC1=O (stereo partly drawn)
6.60

What pIC50 value was documented for this compound, NC[C@H](O)C[C@@H]1NC(=O)[C@@H](N)Cc2cc(ccc2O)-c2ccc(O)c(c2)C[C@@H](C(=O)O)NC1=O [Biphenomycin B, biphenomycin B, reference compound] ?
5.82
